test system: HEK-293T; experiment: Multiplex assay against HEK293T; assay type: toxicity, cell-based; details: human, 24 h, 10 µM, compound concentration 10 uM, replicate 2
Label scheme, based on Population Healthy Nuclei (%): low class: < 30%; middle class: ≥ 30% and < 70%; high class: ≥ 70%

Solved cases below.
CCCCN(CC)c1nc(C)nc2c1c(C)cn2-c1c(C)cc(C)cc1C.Cl
middle class
CC[C@@H]1C(=O)N(C)c2cnc(Nc3ccc(C(=O)NC4CCN(C)CC4)cc3OC)nc2N1C1CCCC1
middle class
Cc1c(P(=S)(c2ccccc2)c2ccccc2)n2ccccc2[n+]1C/C=C/c1ccccc1.[Br-]
low class
Cl.Cn1c2c(c3ccc(Cl)c(Cl)c31)C(C#N)C1(CCNCC1)NC2=O (centres undefined)
high class
CC[C@@]1(O)C(=O)OCc2c1cc1n(c2=O)Cc2cc3ccccc3nc2-1
high class
CC(C)c1cc(Nc2nc(N3CCC[C@H](N)C3)ncc2C(N)=O)cc(C(C)C)n1
low class

// switching to the query compound
Query: Which of the defined bands does the recorded Population Healthy Nuclei (%) of c1ccc(-c2oc3ncnc(NC[C@@H]4CCCO4)c3c2-c2ccccc2)cc1 sit within?
Result: middle class

###

tested on: HEK-293T; test: Multiplex assay against HEK293T; format: toxicity, cell-based; details: human, 12 h, 1 µM, compound concentration 1 uM, replicate 1
Attribute Measured: Population Mitotic Cells (%)
I only need the number, in %, no unit after it.

C=CC(=O)Nc1cc(-n2c(=O)ccc3cnc4ccc(-c5ccc(NS(C)(=O)=O)cc5)cc4c32)ccc1C
55

Turning now to a further molecule:
Query: Note down Population Mitotic Cells (%) recorded for CC(C)[C@H](CO)Nc1nc(Nc2cccc(Cl)c2)c2ncn(C(C)C)c2n1 [PURVALANOLA]
Result: 51

###

system: U2OS; assay: Multiplex assay against U2OS; assay type: toxicity, cell-based; settings: human, 24 h, 10 µM, compound concentration 10 uM, replicate 2
Below, each entry is listed alongside its reported Population Pyknosed Nuclei (%).
I only need the number, in %, no unit after it.

Query: Note down Population Pyknosed Nuclei (%) recorded for Cl.NC[C@@H]1O[C@H](C23CC4CC(CC(C4)C2)C3)Cc2c1ccc(O)c2O
Result: 20

Query: Note down Population Pyknosed Nuclei (%) recorded for CCCCN(CC)c1nc(C)nc2c1c(C)cn2-c1c(C)cc(C)cc1C.Cl
Result: 11

Query: Note down Population Pyknosed Nuclei (%) recorded for N#Cc1cccc(C(=O)Nc2cc(-c3ccccc3)nn2-c2ccccc2)c1
Result: 22

Query: Note down Population Pyknosed Nuclei (%) recorded for CCCc1cc(C)[nH]c(=O)c1CNC(=O)c1cc(-c2ccc(N3CCN(C(C)C)CC3)nc2)cc2c1cnn2C(C)C
Result: 42

Query: Note down Population Pyknosed Nuclei (%) recorded for C[C@@H](Oc1cc(-n2cnc3ccc(CN4CCN(C)CC4)cc32)sc1C(N)=O)c1ccccc1C(F)(F)F
Result: 41

Query: Note down Population Pyknosed Nuclei (%) recorded for CC(C)[C@H](CO)Nc1nc(Nc2cccc(Cl)c2)c2ncn(C(C)C)c2n1
Result: 17

Query: Note down Population Pyknosed Nuclei (%) recorded for Cc1ccc(S(=O)(=O)NC2c3ccccc3Oc3ccccc32)cc1
Result: 21

Query: Note down Population Pyknosed Nuclei (%) recorded for Cl.Cn1c2c(c3ccc(Cl)c(Cl)c31)C(C#N)C1(CCNCC1)NC2=O (centres undefined)
Result: 49

Query: Note down Population Pyknosed Nuclei (%) recorded for Oc1cccc(-c2nc(N3CCOCC3)c3oc4ncccc4c3n2)c1
Result: 47

###

tested on: U2OS; assay: Multiplex assay against U2OS; assay type: toxicity, cell-based; settings: human, 12 h, 10 µM, compound concentration 10 uM, replicate 1
Note to self: values exactly at 7% are true (1). So Population Pyknosed Nuclei (%) at or above 7% is true (1), below is false (0).

Solved cases below.
Cl.Cn1c2c(c3ccc(Cl)c(Cl)c31)C(C#N)C1(CCNCC1)NC2=O (stereo not drawn)
true (1)
CCOc1ccn(-c2ccc(F)cc2)c(=O)c1C(=O)Nc1ccc(Oc2ccnc(N)c2Cl)c(F)c1
false (0)
Cc1c(Nc2ccc(S(=O)(=O)N3CCN(C)CC3)cc2F)nc2ccc(Nc3cnn(C4CC4)c3)cn2c1=O
false (0)
CCCCN(CC)c1nc(C)nc2c1c(C)cn2-c1c(C)cc(C)cc1C.Cl
true (1)
C[C@@H](Oc1cc(-n2cnc3ccc(CN4CCN(C)CC4)cc32)sc1C(N)=O)c1ccccc1C(F)(F)F
true (1)

Query: Form field: Population Pyknosed Nuclei (%) at least 7%? Entry: CCCCCNC(=N)N/N=C/c1c[nH]c2ccc(OC)cc12.O=C(O)/C=C\C(=O)O [TEGASEROD MALEATE]
Result: true (1)

Query: Form field: Population Pyknosed Nuclei (%) at least 7%? Entry: Oc1cccc(-c2nc(N3CCOCC3)c3oc4ncccc4c3n2)c1
Result: true (1)

###

tested on: HEK-293T; test: Multiplex assay against HEK293T; format: toxicity, cell-based; conditions: human, 48 h, 10 µM, compound concentration 10 uM, replicate 1
Attribute Measured: Population Apoptotic (%)
I only need the number, in %, no unit after it.

Worked cases, Population Apoptotic (%) given:
C=CC(=O)Nc1cc(-n2c(=O)ccc3cnc4ccc(-c5ccc(NS(C)(=O)=O)cc5)cc4c32)ccc1C
52
CC(Cc1ccc(O)c(O)c1)C(C)Cc1ccc(O)c(O)c1 (stereo unspecified) [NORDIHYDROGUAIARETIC ACID]
21
CN(c1cc(C(F)(F)F)nc(OCCC(=O)O)n1)c1cccc2c1CCC2
36
CCCCN(CC)c1nc(C)nc2c1c(C)cn2-c1c(C)cc(C)cc1C.Cl
49
CN1CCN(Cc2ccc(-c3cnc4[nH]cc(-c5ccc6[nH]ccc6c5)c4c3)cc2)CC1
90
Cc1ccc(S(=O)(=O)NC2c3ccccc3Oc3ccccc32)cc1
36
Cl.NC[C@@H]1O[C@H](C23CC4CC(CC(C4)C2)C3)Cc2c1ccc(O)c2O
23
CC(/C=C1\SC(=S)N(CCCC(=O)Nc2ccc(C(=O)O)c(O)c2)C1=O)=C\c1ccccc1
49
N#CCNC(=O)c1ccc(-c2ccnc(Nc3ccc(N4CCOCC4)cc3)n2)cc1
37
C[C@@H](Oc1cc(-n2cnc3ccc(CN4CCN(C)CC4)cc32)sc1C(N)=O)c1ccccc1C(F)(F)F
77

Query: Note down Population Apoptotic (%) recorded for Cc1c(P(=S)(c2ccccc2)c2ccccc2)n2ccccc2[n+]1C/C=C/c1ccccc1.[Br-]
Result: 65

Query: Note down Population Apoptotic (%) recorded for Cc1c(Nc2ccc(S(=O)(=O)N3CCN(C)CC3)cc2F)nc2ccc(-c3cnn(C4CC4)c3)cn2c1=O
Result: 44

Query: Note down Population Apoptotic (%) recorded for CC(C)c1cc(Nc2nc(N3CCC[C@H](N)C3)ncc2C(N)=O)cc(C(C)C)n1
Result: 71

Query: Note down Population Apoptotic (%) recorded for CC(C)C[C@H](NC(=O)[C@H](Cc1ccccc1)NC(=O)CNC(=O)CNC(=O)[C@@H](N)Cc1ccc(O)cc1)C(=O)O
Result: 40

Query: Note down Population Apoptotic (%) recorded for CCCc1cc(C)[nH]c(=O)c1CNC(=O)c1cc(-c2ccc(N3CCN(C(C)C)CC3)nc2)cc2c1cnn2C(C)C
Result: 95

Query: Note down Population Apoptotic (%) recorded for N#Cc1cccc(C(=O)Nc2cc(-c3ccccc3)nn2-c2ccccc2)c1
Result: 53

###

test system: HEK-293T; experiment: Multiplex assay against HEK293T; format: toxicity, cell-based; details: human, 24 h, 1 µM, compound concentration 1 uM, replicate 2
Below, each entry is listed alongside its reported Population Apoptotic (%).
I only need the number, in %, no unit after it.

C[C@@H](Oc1cc(-n2cnc3ccc(CN4CCN(C)CC4)cc32)sc1C(N)=O)c1ccccc1C(F)(F)F
38
CCCCN(CC)c1nc(C)nc2c1c(C)cn2-c1c(C)cc(C)cc1C.Cl
15
CN(c1cc(C(F)(F)F)nc(OCCC(=O)O)n1)c1cccc2c1CCC2
21

Query: Give Population Apoptotic (%) for this entry on HEK-293T: CCOc1ccn(-c2ccc(F)cc2)c(=O)c1C(=O)Nc1ccc(Oc2ccnc(N)c2Cl)c(F)c1
Result: 9

###

Below, each entry is listed alongside its reported Population Hoechst High Intensity Objects (%).
tested on: U2OS; assay: Multiplex assay against U2OS; format: toxicity, cell-based; details: human, 12 h, 10 µM, compound concentration 10 uM, replicate 1
I only need the number, in %, no unit after it.

CN(c1cc(C(F)(F)F)nc(OCCC(=O)O)n1)c1cccc2c1CCC2
5
CC[C@@]1(O)C(=O)OCc2c1cc1n(c2=O)Cc2cc3ccccc3nc2-1 [CAMPTOTHECIN]
6
CC(/C=C1\SC(=S)N(CCCC(=O)Nc2ccc(C(=O)O)c(O)c2)C1=O)=C\c1ccccc1
9
Oc1cccc(-c2nc(N3CCOCC3)c3oc4ncccc4c3n2)c1 [PI-103]
6
CCOc1ccn(-c2ccc(F)cc2)c(=O)c1C(=O)Nc1ccc(Oc2ccnc(N)c2Cl)c(F)c1 [BMS-777607]
1
N#Cc1cccc(C(=O)Nc2cc(-c3ccccc3)nn2-c2ccccc2)c1
6

Query: Note down Population Hoechst High Intensity Objects (%) recorded for Cc1ccc(S(=O)(=O)NC2c3ccccc3Oc3ccccc32)cc1
Result: 7

Query: Note down Population Hoechst High Intensity Objects (%) recorded for Cc1c(Nc2ccc(S(=O)(=O)N3CCN(C)CC3)cc2F)nc2ccc(Nc3cnn(C4CC4)c3)cn2c1=O
Result: 3

Query: Note down Population Hoechst High Intensity Objects (%) recorded for CC(C)c1cc(Nc2nc(N3CCC[C@H](N)C3)ncc2C(N)=O)cc(C(C)C)n1
Result: 4

Each recorded value in this set is attributed to ChEMBL document CHEMBL4689842.
